Target: IRAK4 (Homo sapiens (Human))
Test: Western Assay for IRAK4 Degradation
Format: cell-based
Settings: wild-type Jurkat cells, 4 hrs; approximate
endpoint.name: DC50 (nM)

Solved entries:
molecule: CC(C)Nc1cc(-c2ccc3cc(C#N)cnn23)ncc1-c1nnc(N2CCN(C(=O)C3CCN(CC4CCN(c5ccc(-c6nn(C7CCC(=O)NC7=O)c(=O)n6C)cc5)CC4)CC3)CC2)s1 (stereo not drawn)
measured.on: IRAK4 (Homo sapiens (Human))
observed: 200
//
molecule: CC[C@@H]1[C@H](F)C(=O)N[C@@H]1COc1ncc(C#CCN2CCC3(CC2)CCN(c2ncc(C(=O)N[C@H](C(=O)N4C[C@H](O)C[C@H]4C(=O)NCc4ccc(-c5scnc5C)cc4)C(C)(C)C)cn2)CC3)c2cc(C(N)=O)c(OC)cc12 [Comparative b1, reference compound]
measured.on: IRAK4 (Homo sapiens (Human))
observed: 70

(1) Cc1ncsc1-c1ccc(CNC(=O)[C@@H]2C[C@@H](O)CN2C(=O)[C@@H](NC(=O)C2(F)CC2)C(C)(C)C)c(OCCOCCC(=O)N2CCN(c3nnc(-c4cnc(-c5ccc6cc(C#N)cnn56)cc4NC(C)C)s3)CC2)c1
(2) Cc1ncsc1-c1ccc(CNC(=O)[C@@H]2C[C@@H](O)CN2C(=O)[C@@H](NC(=O)CCCC(=O)N2CCN(c3nnc(-c4cnc(-c5ccc6cc(C#N)cnn56)cc4NC(C)C)s3)CC2)C(C)(C)C)cc1
(3) CC(C)Nc1cc(-c2ccc3cc(C#N)cnn23)ncc1-c1nnc(N2CCN(C(=O)C3CCN(Cc4ccc5c(c4)C(=O)N(C4CCC(=O)NC4=O)C5=O)CC3)CC2)s1 (stereo not drawn)
(4) NC(=O)c1nn(-c2ccc(C(=O)NCCOCCOCCNc3cccc4c3C(=O)N(C3CCC(=O)NC3=O)C4=O)cc2)cc1NC(=O)c1coc(-c2ccnc(NCC(F)(F)F)c2)n1 (stereo not drawn) [Comparative Compound a2, reference compound]
Problem: Order field: DC50 | Direction: descending (largest first) Lab note: record answer as labels in requested order.
Result: 2, 1, 3, 4

----------
Target: IRAK4 (Homo sapiens (Human), UniProt Q9NWZ3)
Sequence (Q9NWZ3 whole entry): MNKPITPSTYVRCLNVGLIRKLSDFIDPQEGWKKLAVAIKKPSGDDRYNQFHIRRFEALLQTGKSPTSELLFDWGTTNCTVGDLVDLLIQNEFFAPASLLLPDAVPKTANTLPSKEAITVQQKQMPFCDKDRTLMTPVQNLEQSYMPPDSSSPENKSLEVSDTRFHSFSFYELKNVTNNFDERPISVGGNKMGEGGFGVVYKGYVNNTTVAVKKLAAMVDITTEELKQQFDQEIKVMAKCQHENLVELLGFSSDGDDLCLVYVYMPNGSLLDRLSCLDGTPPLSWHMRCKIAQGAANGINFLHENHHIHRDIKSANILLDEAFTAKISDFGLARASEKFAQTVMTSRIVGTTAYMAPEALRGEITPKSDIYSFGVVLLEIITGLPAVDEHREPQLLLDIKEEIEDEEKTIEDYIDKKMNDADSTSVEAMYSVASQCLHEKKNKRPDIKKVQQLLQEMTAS
Assay: IRAK4 Degradation HiBiT Assay
Conditions: Jurkat, read-out: Cellular IRAK4 HiBiT: Dmax, Table 5; multiple runs; HiBiT-tagged Jurkat cells, 4 hrs
endpoint.name: Dmax (%)

molecule: CC(C)Nc1cc(-c2ccc3cc(C#N)cnn23)ncc1-c1nnc(N2CCN(C(=O)CCOCCOCCOCCNc3cccc4c3C(=O)N(C3CCC(=O)NC3=O)C4=O)CC2)s1 (stereo not shown)
measured.on: IRAK4 (Homo sapiens (Human), UniProt Q9NWZ3)
Dmax, %: 104

(P) CNc1cc(-c2ccc3cc(C#N)cnn23)ncc1-c1nnc(N2CCC(C3CCN(C(=O)CN4CCN(c5ccc6c(c5)C(=O)N(C5CCC(=O)NC5=O)C6=O)CC4)CC3)CC2)s1 (stereo not shown)
(Q) CC(C)Nc1cc(-c2ccc3cc(C#N)cnn23)ncc1-c1nnc(N2CCN(C(=O)CCOCCNc3cccc4c3C(=O)N(C3CCC(=O)NC3=O)C4=O)CC2)s1 (stereo not shown)
(R) CNc1cc(-c2ccc3cc(C#N)cnn23)ncc1-c1nnc([C@H]2CC[C@H](NC(=O)CCC(=O)N[C@H](C(=O)N3C[C@H](O)C[C@H]3C(=O)N[C@@H](C)c3ccccc3)C(C)(C)C)CC2)s1
Problem: List by increasing Dmax. Answer format: list of labels, ordered as asked.
Result: R, Q, P
